Origin of values: ChEMBL document CHEMBL1275385

- experimental details: Half life in rat at 3 mg/kg, po
- Type: ADME, organism-based
- Design: dose 3 mg/kg, route oral
- details: in vivo
measured endpoint: half-life (h)
# unit: h | format: bare number

// half-life lookup, key: `O=C(NCc1cccnc1N1CCOCC1)c1cncc(-c2ccc(OC(F)(F)F)cc2)n1` 1.6

----------
- system under test: Sodium channel protein type 10 subunit alpha (Homo sapiens, UniProt Q9Y5Y9)
- Sequence (Q9Y5Y9 whole entry): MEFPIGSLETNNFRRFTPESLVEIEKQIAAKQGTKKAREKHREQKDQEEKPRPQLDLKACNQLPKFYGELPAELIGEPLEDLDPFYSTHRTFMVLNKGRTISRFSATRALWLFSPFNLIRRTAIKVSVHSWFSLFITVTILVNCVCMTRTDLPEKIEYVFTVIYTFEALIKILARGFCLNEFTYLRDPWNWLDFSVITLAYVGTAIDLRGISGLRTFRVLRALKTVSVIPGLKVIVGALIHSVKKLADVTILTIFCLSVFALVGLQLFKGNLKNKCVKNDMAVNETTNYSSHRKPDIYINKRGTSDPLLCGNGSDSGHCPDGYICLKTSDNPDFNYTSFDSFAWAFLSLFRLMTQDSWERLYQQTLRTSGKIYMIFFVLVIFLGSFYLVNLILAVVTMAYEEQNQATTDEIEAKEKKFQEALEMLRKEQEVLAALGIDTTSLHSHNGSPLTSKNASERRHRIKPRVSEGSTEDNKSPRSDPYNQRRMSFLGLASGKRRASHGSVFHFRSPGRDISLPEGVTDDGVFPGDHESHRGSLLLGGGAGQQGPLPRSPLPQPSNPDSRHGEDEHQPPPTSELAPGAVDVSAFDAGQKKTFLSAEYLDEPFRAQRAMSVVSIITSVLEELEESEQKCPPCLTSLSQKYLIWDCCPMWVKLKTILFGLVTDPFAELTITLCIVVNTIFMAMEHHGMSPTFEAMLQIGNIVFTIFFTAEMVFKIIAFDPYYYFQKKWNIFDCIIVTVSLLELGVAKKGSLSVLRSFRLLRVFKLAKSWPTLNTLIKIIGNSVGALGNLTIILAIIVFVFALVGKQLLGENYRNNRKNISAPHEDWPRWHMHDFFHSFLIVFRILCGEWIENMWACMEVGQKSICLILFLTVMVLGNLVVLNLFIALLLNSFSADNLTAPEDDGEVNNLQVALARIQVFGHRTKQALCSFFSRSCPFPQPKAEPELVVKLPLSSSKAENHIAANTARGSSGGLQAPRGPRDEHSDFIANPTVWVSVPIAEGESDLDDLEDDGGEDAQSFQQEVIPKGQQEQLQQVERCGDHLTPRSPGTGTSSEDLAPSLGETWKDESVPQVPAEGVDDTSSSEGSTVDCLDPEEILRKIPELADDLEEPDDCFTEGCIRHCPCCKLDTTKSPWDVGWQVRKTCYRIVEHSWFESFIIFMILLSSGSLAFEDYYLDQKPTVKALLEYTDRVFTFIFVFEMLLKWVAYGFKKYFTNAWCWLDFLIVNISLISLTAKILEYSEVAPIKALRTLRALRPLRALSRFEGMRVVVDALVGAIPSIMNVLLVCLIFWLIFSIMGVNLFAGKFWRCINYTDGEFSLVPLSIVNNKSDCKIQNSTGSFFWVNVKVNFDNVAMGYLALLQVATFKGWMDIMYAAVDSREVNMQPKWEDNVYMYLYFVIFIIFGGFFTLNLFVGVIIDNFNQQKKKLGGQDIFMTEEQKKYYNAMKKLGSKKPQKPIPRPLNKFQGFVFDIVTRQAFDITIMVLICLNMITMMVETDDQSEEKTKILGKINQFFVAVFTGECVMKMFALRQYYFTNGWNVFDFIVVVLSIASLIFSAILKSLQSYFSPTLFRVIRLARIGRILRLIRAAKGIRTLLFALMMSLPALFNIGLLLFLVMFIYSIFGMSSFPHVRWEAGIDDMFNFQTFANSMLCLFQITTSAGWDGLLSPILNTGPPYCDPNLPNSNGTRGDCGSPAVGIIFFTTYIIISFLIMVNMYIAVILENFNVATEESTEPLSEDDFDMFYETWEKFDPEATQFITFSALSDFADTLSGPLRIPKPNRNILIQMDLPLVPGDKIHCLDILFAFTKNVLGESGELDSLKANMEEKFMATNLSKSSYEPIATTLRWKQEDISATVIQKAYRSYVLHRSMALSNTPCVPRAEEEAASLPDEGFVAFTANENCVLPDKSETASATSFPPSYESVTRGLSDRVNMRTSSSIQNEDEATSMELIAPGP
- experimental details: Inhibition of human recombinant NaV1.8 expressed in HEK293 cells by conventional voltage clamp electrophysiology assay
pIC50: −log10 of the molar value.
Please enter Met where pIC50 is greater than or equal to 7, and Not met where it is lower.

- cpd smiles: "Cc1cc(C)cc(NC(=O)c2cncc(-c3ccc(C#N)cc3)n2)c1"
  label class: "Met"
- cpd smiles: "CC(C)Oc1cccc(NC(=O)c2cncc(-c3ccc(C#N)cc3)n2)c1"
  label class: "Met"

Is pIC50 at least 7? Consider `Cc1cccc(NC(=O)c2cncc(-c3ccc(OC(F)(F)F)cc3)n2)c1` Met

Is pIC50 at least 7? Consider `Cc1ccccc1CNC(=O)c1cncc(-c2ccc(Cl)cc2)n1` Met

Is pIC50 at least 7? Consider `Cc1ccccc1CNC(=O)c1cncc(-c2ccc(OC(F)(F)F)cc2)n1` Met

Is pIC50 at least 7? Consider `O=C(NCc1ccncc1N1CCOCC1)c1cncc(-c2ccc(Cl)cc2)n1` Not met

----------
- system under test: Sodium channel protein type 10 subunit alpha (Mus musculus, UniProt Q6QIY3)
- Sequence (Q6QIY3 whole entry): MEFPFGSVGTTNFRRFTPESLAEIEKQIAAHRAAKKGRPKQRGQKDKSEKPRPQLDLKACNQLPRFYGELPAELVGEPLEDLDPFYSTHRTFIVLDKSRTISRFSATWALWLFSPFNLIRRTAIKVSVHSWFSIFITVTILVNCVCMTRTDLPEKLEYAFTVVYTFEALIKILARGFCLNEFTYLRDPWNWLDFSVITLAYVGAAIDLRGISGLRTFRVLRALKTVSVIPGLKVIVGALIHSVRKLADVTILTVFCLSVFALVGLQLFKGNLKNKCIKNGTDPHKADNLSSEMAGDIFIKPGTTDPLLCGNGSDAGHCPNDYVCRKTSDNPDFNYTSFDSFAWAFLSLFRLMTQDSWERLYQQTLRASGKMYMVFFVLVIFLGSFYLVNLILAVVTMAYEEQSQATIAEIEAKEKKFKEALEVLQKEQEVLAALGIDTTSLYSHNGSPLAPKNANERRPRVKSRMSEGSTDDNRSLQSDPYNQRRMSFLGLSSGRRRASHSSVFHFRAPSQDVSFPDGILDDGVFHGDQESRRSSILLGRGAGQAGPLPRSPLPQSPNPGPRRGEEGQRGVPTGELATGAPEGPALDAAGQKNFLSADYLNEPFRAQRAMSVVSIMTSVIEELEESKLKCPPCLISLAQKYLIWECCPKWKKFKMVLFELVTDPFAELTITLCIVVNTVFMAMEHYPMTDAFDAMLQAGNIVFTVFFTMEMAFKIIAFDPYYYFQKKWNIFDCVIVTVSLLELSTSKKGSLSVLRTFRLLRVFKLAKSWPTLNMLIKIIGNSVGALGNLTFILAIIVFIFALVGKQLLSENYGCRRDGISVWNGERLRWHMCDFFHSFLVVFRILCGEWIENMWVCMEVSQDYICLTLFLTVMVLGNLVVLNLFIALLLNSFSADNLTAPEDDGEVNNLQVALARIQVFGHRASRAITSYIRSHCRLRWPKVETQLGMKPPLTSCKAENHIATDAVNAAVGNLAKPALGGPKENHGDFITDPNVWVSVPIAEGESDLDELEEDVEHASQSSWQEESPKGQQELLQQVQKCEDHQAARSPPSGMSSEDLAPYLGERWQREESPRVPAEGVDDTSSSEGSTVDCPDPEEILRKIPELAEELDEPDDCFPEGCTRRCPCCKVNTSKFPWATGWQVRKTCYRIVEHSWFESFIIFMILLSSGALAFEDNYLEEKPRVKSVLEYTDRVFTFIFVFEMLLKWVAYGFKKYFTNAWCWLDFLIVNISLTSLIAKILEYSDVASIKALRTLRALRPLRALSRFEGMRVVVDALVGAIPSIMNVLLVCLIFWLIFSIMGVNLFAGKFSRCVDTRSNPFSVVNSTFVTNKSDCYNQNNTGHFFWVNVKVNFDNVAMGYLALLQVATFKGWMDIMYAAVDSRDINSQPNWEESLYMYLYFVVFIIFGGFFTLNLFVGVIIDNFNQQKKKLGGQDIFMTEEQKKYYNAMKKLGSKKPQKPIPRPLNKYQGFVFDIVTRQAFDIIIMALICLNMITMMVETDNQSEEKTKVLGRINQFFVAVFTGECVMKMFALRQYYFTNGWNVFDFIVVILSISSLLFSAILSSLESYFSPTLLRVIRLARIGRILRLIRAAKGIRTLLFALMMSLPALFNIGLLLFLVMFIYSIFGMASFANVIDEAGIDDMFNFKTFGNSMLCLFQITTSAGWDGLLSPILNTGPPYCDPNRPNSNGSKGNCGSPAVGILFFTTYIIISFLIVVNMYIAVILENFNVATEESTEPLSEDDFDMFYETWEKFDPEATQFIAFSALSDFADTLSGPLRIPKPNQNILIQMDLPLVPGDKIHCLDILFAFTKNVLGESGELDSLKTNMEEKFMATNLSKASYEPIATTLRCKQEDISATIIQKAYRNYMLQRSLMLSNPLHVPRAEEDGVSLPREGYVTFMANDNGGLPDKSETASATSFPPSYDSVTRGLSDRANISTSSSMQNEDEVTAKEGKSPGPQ
- experimental details: Inhibition of mouse NaV1.8 expressed in HEK293 cells by isotopic efflux assay
pIC50: −log10 of the molar value.
Please enter TRUE where pIC50 is greater than or equal to 6, and FALSE where it is lower.

Here are 6 compounds together with their reported answers.
- cpd smiles: "O=C(NCCc1ccc(Cl)cc1)c1cncc(-c2ccc(Cl)cc2)n1"
  label class: "FALSE"
- cpd smiles: "Cc1cc(C)cc(NC(=O)c2cncc(-c3ccc(C#N)cc3)n2)c1"
  label class: "TRUE"
- cpd smiles: "O=C(NCc1cccnc1N1CCOCC1)c1cncc(-c2ccc(OC(F)(F)F)cc2)n1"
  label class: "TRUE"
- cpd smiles: "O=C(NCc1cnccc1N1CCOCC1)c1cncc(-c2ccc(Cl)cc2)n1"
  label class: "FALSE"
- cpd smiles: "O=C(NCc1ccncc1N1CCOCC1)c1cncc(-c2ccc(Cl)cc2)n1"
  label class: "FALSE"
- cpd smiles: "Cc1cc(C)cc(NC(=O)c2cncc(-c3ccc(OC(F)(F)F)cc3)n2)c1"
  label class: "TRUE"

Is pIC50 at least 6? Consider `O=C(NCc1cccnc1)c1cncc(-c2ccc(Cl)cc2)n1` FALSE

Is pIC50 at least 6? Consider `Cc1ccccc1CNC(=O)c1cncc(-c2ccc(C#N)cc2)n1` FALSE

Is pIC50 at least 6? Consider `O=C(NCc1cccnc1N1CCOCC1)c1cncc(-c2ccc(Cl)cc2)n1` FALSE

Is pIC50 at least 6? Consider `CCOc1ccc(-c2cncc(C(=O)NCc3ccccc3C)n2)cc1` TRUE

Is pIC50 at least 6? Consider `Cc1ccccc1CNC(=O)c1cncc(-c2ccc(OC(F)(F)F)cc2)n1` TRUE

Is pIC50 at least 6? Consider `Cc1cc(C)cc(NC(=O)c2cncc(-c3ccc(Cl)cc3)n2)c1` TRUE

Is pIC50 at least 6? Consider `Cc1cccc(NC(=O)c2cncc(-c3ccc(OC(F)(F)F)cc3)n2)c1` TRUE

Is pIC50 at least 6? Consider `CCOc1ccc(-c2cncc(C(=O)Nc3cc(C)cc(C)c3)n2)cc1` TRUE

Is pIC50 at least 6? Consider `CCOc1ccc(-c2cncc(C(=O)Nc3cccc(C)c3)n2)cc1` TRUE

Is pIC50 at least 6? Consider `O=C(Nc1cccnc1)c1cncc(-c2ccc(Cl)cc2)n1` FALSE

Is pIC50 at least 6? Consider `O=C(NCc1cccnc1N1CCCC1)c1cncc(-c2ccc(Cl)cc2)n1` TRUE
